Tested System: cholesterol esterase (CE) (Homo sapiens, UniProt P19835)
Sequence (P19835 21-753): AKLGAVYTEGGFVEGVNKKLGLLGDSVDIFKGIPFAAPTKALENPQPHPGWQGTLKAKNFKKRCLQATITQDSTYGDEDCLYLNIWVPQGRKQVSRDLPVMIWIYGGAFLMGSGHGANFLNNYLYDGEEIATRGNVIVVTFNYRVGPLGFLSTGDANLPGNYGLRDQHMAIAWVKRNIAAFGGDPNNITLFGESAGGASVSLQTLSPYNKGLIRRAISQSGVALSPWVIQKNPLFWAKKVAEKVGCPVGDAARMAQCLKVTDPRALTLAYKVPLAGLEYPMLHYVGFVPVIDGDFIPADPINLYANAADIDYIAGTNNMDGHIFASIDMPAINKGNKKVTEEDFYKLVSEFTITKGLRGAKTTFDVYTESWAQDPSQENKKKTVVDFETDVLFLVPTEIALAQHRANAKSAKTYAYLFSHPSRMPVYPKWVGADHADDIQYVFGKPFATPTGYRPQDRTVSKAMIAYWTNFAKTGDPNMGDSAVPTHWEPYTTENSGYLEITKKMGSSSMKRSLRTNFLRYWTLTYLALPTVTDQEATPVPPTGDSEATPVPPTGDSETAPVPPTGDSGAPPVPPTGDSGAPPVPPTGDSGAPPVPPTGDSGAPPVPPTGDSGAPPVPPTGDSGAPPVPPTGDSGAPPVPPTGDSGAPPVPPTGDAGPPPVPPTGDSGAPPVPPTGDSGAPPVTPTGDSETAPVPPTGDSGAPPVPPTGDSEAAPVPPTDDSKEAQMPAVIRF
Measurement Label: Ki

Log: cholesterol esterase (CE) (Homo sapiens, UniProt P19835), molecule `O=c1oc(Cl)ccc1CCC1CCCCC1` , Ki = < 30 nM
